Values were extracted from patent US11446270B2.

experiment: Hygroscopicity, dynamic vapor sorption (DVS), 0-95% RH; assay type: physicochemical; conditions: range of 0-95% relative humidity
MEASURED ATTRIBUTE: hygroscopicity (in words)

| MOLECULE | MEASURED ATTRIBUTE | RESULT |
| --- | --- | --- |
| COc1cc(C(=O)OCCCCNC(=N)N)cc(OC)c1O [crystal form F] | hygroscopicity (in words) | slightly hygroscopicity |
| COc1cc(C(=O)OCCCCNC(=N)N)cc(OC)c1O [crystal form B] | hygroscopicity (in words) | slightly hygroscopicity |
